# EXPERIMENTAL_TARGET: Bromodomain-containing protein 4 (Homo sapiens, UniProt O60885, Y390A)
# METHOD_NOTES: Displacement of Alexa Fluor 647 labelled ligand from His6-tagged BRD4 BD1 (1 to 477 residues)/BD2 Y390A mutant (unknown origin) after 30 mins by TR-FRET assay
Reported IC50 values are given for each entry in this list.

{"columns": ["COMPOUND", "IC50"],
 "data": [
  ["Cc1ccc(NC(=O)CN2C(=O)NC3(CCc4ccccc43)C2=O)cc1S(=O)(=O)N1CCCCC1 (centres undefined)", "> 50.1 µM"],
  ["O=C(CN1C(=O)NC(CCc2ccccc2)C1=O)Nc1ccc(Cl)c(S(=O)(=O)N2CCCCC2)c1 (centres undefined)", "> 50.1 µM"],
  ["CC1(C2CC2)NC(=O)N(CC(=O)Nc2ccc(C(F)(F)F)c(S(=O)(=O)N3CCCCC3)c2)C1=O (racemic)", "> 50.1 µM"]
]}

Problem: What does the record list as IC50 for Cc1ccc(C2(C)NC(=O)N(CC(=O)Nc3ccc(C)c(S(=O)(=O)N4CCCCC4)c3)C2=O)cc1 (centres undefined) ?
Result: 5.01 µM
